assay: Rat lung retention after intra-tracheal dosing (long duration of action); details: in vivo, 0.4 mg/kg, Mean (lung) ng/g
Structures can show the parent of a compound that is named as a salt.
readout name: concentration at 48 h

Asked: Please report the recorded concentration at 48 h for CC(=O)N[C@H]1[C@H]([C@H](OC(=O)Nc2ccc(Cc3ccc(NC(=O)O[C@@H]([C@@H]4OC(C(=O)O)=C[C@H](NC(=N)N)[C@H]4NC(C)=O)[C@H](O)CO)cc3)cc2)[C@H](O)CO)OC(C(=O)O)=C[C@@H]1NC(=N)N [Example 8, bis TFA Salt] .
Given back: 3250 ng/g

###

Recorded concentration at 168 h by entry
assay: Rat lung retention after intra-tracheal dosing (long duration of action); conditions: in vivo, 0.1 mg/kg, Mean (cmpd) ng/g
Counter-ions that a name gives are not always drawn.
Number first, unit second.

>  <compound>
CC(=O)N[C@H]1[C@H]([C@H](OC(=O)NCc2ccc(-c3ccc(CNC(=O)O[C@@H]([C@@H]4OC(C(=O)O)=C[C@H](NC(=N)N)[C@H]4NC(C)=O)[C@H](O)CO)cc3)cc2)[C@H](O)CO)OC(C(=O)O)=C[C@@H]1NC(=N)N [Example 9, bis TFA Salt]

>  <readout name>
concentration at 168 h

>  <result value>
835 ng/g

$$$$

Asked: For the compound shown here, CC(=O)N[C@H]1[C@H]([C@H](OC(=O)NCCc2ccc(CCNC(=O)O[C@@H]([C@@H]3OC(C(=O)O)=C[C@H](NC(=N)N)[C@H]3NC(C)=O)[C@H](O)CO)cc2)[C@H](O)CO)OC(C(=O)O)=C[C@@H]1NC(=N)N [Example 2] , give the reported concentration at 168 h.
Given back: 259 ng/g
